experiment: Chemical stability in pH 5.7 buffer at room temperature after 12 weeks; format: physicochemical; details: read-out: Stability
MEASURED_METRIC: remaining at 2016 h (%)

COc1cccc(OCCO[N+](=O)[O-])c1C(=O)O[C@@H](CNC(C)(C)C)COc1nsnc1N1CCOCC1.O=C(O)/C=C\C(=O)O; 98.3
COc1cc(COC(=O)CCOCC(CO[N+](=O)[O-])O[N+](=O)[O-])c(C(=O)O[C@@H](CNC(C)(C)C)COc2nsnc2N2CCOCC2)c(OC)c1.O=C(O)/C=C\C(=O)O (stereo not given in full); 86
COc1cc(COC(=O)CCCCCO[N+](=O)[O-])cc(OC)c1C(=O)O[C@@H](CNC(C)(C)C)COc1nsnc1N1CCOCC1.O=C(O)/C=C\C(=O)O; 93.2
COc1cc(OCCO[N+](=O)[O-])cc(C)c1C(=O)O[C@@H](CNC(C)(C)C)COc1nsnc1N1CCOCC1.O=C(O)/C=C\C(=O)O; 98.5
COc1cc(COC(=O)C(C)(C)CO[N+](=O)[O-])c(C(=O)O[C@@H](CNC(C)(C)C)COc2nsnc2N2CCOCC2)c(OC)c1.O=C(O)/C=C\C(=O)O; 93.2

Numbers sourced from ChEMBL document CHEMBL1151861.
